target: SLC19A2 (Homo sapiens, UniProt O60779)
procedure.details: SLC19A2 inhibitor screen: [3H]-thiamine uptake in SLC19A2-overexpressing HEK293 cells
Type: cell-based
Parameters: host or cells: HEK293, stably overexpressing SLC19A2 and transiently transfected with a further 500 ng wild-type plasmid
condition.notes: HEK293, 10 min, drug 1 mM, [3H]-thiamine 25 nM, 10 min, HEK293 cells expressing SLC19A2; relative to uptake without inhibitor; read-out: Average % SLC19A2 thiamine uptake
readout.kind: remaining activity at 1000 µM (%)

Worked examples follow.
- compound: "Nc1ccc(O)c(C(=O)O)c1"
  readout.units: "%"
  number: 87.7
- compound: "CN(Cc1cnc2nc(N)nc(N)c2n1)c1ccc(C(=O)N[C@@H](CCC(=O)O)C(=O)O)cc1 [Methotrexate]"
  readout.units: "%"
  number: 84.9

[A] Cc1cnc(Nc2ccc(OCCN3CCCC3)cc2)nc1Nc1cccc(S(=O)(=O)NC(C)(C)C)c1
[B] CCc1nc(N)nc(N)c1-c1ccc(Cl)cc1
-- ask Hello, I am sorting some records. Could you say if A or B has the smaller remaining activity at 1000 µM value? Write the label of whichever entry you select.
-- reply A

[A] CNC(=C[N+](=O)[O-])NCCSCc1ccc(CN(C)C)o1
[B] CO[C@H]1/C=C/O[C@@]2(C)Oc3c(C)c(O)c4c(O)c(c(/C=N/N5CCN(C)CC5)c(O)c4c3C2=O)NC(=O)/C(C)=C\C=C\[C@H](C)[C@H](O)[C@@H](C)[C@@H](O)[C@@H](C)[C@H](OC(C)=O)[C@@H]1C
-- ask Of A and B , which shows the smaller remaining activity at 1000 µM value? Answer by stating the label of the chosen item.
-- reply B

[a] Nc1nc2nc[nH]c2c(=S)[nH]1
[b] Cc1c(OCC(F)(F)F)ccnc1C[S+]([O-])c1nc2ccccc2[nH]1 (stereo not drawn)
-- ask // which entry has the larger remaining activity at 1000 µM value, a or b ? # answer = label of selected item
-- reply a
(a: 93.3%, b: 45.9%)

----------
target: SLC19A2 (Homo sapiens)
procedure.details: SLC19A2 inhibitor screen: [3H]-thiamine uptake in SLC19A2-overexpressing HEK293 cells
Assay type: cell-based
Set-up: host or cells: HEK293, stably overexpressing SLC19A2 and transiently transfected with a further 500 ng wild-type plasmid
condition.notes: HEK293, 10 min, drug 1 mM, [3H]-thiamine 25 nM, 10 min, HEK293 cells expressing SLC19A2; relative to uptake without inhibitor; read-out: Average % SLC19A2 thiamine uptake
readout.kind: remaining activity at 1000 µM (%)

[1] CC(=O)NC[C@H]1CN(c2ccc(N3CCOCC3)c(F)c2)C(=O)O1 [Linezolid]
[2] COc1ccnc(C[S+]([O-])c2nc3ccc(OC(F)F)cc3[nH]2)c1OC (stereo not shown) [Pantoprazole]
[3] CCCc1ncc(C[n+]2ccccc2C)c(N)n1 [Amprolium]
-- ask # rank by remaining activity at 1000 µM, ascending (min first) The reply should contain the labels ordered as requested.
-- reply 3, 2, 1

----------
target: SLC19A2 (Homo sapiens)
procedure.details: SLC19A2 inhibitor screen: [3H]-thiamine uptake in SLC19A2-overexpressing HEK293 cells
Type: cell-based
Design: host or cells: HEK293, stably overexpressing SLC19A2 and transiently transfected with a further 500 ng wild-type plasmid
condition.notes: HEK293, 10 min, drug 1 mM, [3H]-thiamine 25 nM, 10 min, HEK293 cells expressing SLC19A2; relative to uptake without inhibitor; read-out: Average % SLC19A2 thiamine uptake
Method: Plasmids encoding wild-type SLC19A2 and three TRMA-associated variants were generated by Genscript Inc. (Piscataway, USA). Methods for generation of stably overexpressing SLC19A2 cell lines and uptake studies have been previously described ([11], [12]). Inhibition and kinetic studies were performed in SLC19A2-overexpressing stable HEK293 cells transiently transfected with an additional 500 ng of SLC19A2 wild-type plasmid. […]
readout.kind: remaining activity at 1000 µM (%)

- compound: "Cc1nc2ccc(CN(C)c3ccc(C(=O)N[C@@H](CCC(=O)O)C(=O)O)s3)cc2c(=O)[nH]1"
  remaining activity at 1000 µM / %: 88.2
- compound: "COc1ccc2nc([S@@+]([O-])Cc3ncc(C)c(OC)c3C)[nH]c2c1"
  remaining activity at 1000 µM / %: 57.7
- compound: "CC1(C)S[C@@H]2[C@H](NC(=O)C(C(=O)O)c3ccccc3)C(=O)N2[C@H]1C(=O)O (some centres unmarked)"
  remaining activity at 1000 µM / %: 90.8
- compound: "Nc1nc(N)c2nc(-c3ccccc3)c(N)nc2n1"
  remaining activity at 1000 µM / %: 111
- compound: "O=C(N[C@H](CO)[C@H](O)c1ccc([N+](=O)[O-])cc1)C(Cl)Cl"
  remaining activity at 1000 µM / %: 91.5

[a] COc1c(C)c2c(c(O)c1C/C=C(\C)CCC(=O)OCCN1CCOCC1)C(=O)OC2 [Mycophenolate mofetil]
[b] [H]/N=C(/N)N/C(=N/[H])NCCc1ccccc1
-- ask Form field 'greater remaining activity at 1000 µM' accepts a or b ; which applies? Let me know the label of the one you choose.
-- reply b
(b: 82.3%, a: 32.8%)

----------
target: SLC19A2 (Homo sapiens)
Sequence (O60779 1-497): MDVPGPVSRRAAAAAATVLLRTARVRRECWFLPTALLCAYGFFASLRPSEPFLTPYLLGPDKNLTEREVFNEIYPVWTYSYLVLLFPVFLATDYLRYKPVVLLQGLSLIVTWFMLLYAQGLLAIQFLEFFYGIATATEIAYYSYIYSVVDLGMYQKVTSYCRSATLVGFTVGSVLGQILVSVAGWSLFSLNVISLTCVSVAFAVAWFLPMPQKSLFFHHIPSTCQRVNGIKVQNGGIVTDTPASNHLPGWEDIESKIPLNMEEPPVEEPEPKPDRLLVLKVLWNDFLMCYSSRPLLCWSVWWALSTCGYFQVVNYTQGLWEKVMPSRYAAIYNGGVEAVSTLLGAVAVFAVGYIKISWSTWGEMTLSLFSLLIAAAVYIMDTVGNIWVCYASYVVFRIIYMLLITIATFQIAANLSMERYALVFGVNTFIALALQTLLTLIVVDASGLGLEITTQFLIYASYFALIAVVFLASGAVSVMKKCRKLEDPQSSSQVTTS
procedure.details: SLC19A2 inhibitor screen: [3H]-thiamine uptake in SLC19A2-overexpressing HEK293 cells
Format: cell-based
Parameters: host or cells: HEK293, stably overexpressing SLC19A2 and transiently transfected with a further 500 ng wild-type plasmid
condition.notes: HEK293, 10 min, drug 1 mM, [3H]-thiamine 25 nM, 10 min, HEK293 cells expressing SLC19A2; relative to uptake without inhibitor; read-out: Average % SLC19A2 thiamine uptake
readout.kind: remaining activity at 1000 µM (%)

Check out these entries, answers already filled in.
- compound: "CC[C@H]1OC(=O)[C@H](C)[C@@H](O[C@H]2C[C@@](C)(OC)[C@@H](O)[C@H](C)O2)[C@H](C)[C@@H](O[C@@H]2O[C@H](C)C[C@H](N(C)C)[C@H]2O)[C@](C)(OC)C[C@@H](C)C(=O)[C@H](C)[C@@H](O)[C@]1(C)O [Clarithromycin]"
  number: 58.2
- compound: "C[C@H]1c2cccc(O)c2C(=O)C2=C(O)[C@]3(O)C(=O)C(C(N)=O)=C(O)[C@@H](N(C)C)[C@@H]3[C@@H](O)[C@@H]21 [Doxycycline]"
  number: 67.8
- compound: "C=C[C@H]1C[N@@]2CC[C@H]1C[C@@H]2[C@@H](O)c1ccnc2ccc(OC)cc12 [Quinidine]"
  number: 53
- compound: "Nc1nc(N)c2nc(CNc3ccc(C(=O)N[C@@H](CCC(=O)O)C(=O)O)cc3)cnc2n1 [Aminopterin]"
  number: 93

[A] CO[C@H]1O[C@@H]2O[C@@]3(C)CC[C@H]4[C@H](C)CC[C@@H]([C@H]1C)[C@@]24OO3 [Artemether]
[B] COc1cc(Cc2cnc(N)nc2N)cc(OC)c1OC [Trimethoprim]
-- ask Could you determine which record has the numerically smaller remaining activity at 1000 µM? Candidates: A and B I would appreciate it if you answered with the label of your choice.
-- reply B

----------
target: SLC19A2 (Homo sapiens)
Sequence (O60779 1-497): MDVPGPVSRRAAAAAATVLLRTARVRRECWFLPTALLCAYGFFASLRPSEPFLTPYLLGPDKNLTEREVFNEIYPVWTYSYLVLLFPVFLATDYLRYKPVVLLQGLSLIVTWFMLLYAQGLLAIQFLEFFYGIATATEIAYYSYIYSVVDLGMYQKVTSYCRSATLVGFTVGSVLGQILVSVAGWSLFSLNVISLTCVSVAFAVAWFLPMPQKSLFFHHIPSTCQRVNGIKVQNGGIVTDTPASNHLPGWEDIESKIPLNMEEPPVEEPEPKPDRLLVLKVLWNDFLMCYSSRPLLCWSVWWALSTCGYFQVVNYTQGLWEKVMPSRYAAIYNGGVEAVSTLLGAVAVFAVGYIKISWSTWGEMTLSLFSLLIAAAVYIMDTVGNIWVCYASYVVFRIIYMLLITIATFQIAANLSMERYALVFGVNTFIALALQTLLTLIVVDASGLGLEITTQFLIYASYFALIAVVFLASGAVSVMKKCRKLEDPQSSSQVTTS
procedure.details: SLC19A2 inhibitor screen: [3H]-thiamine uptake in SLC19A2-overexpressing HEK293 cells
Format: cell-based
Parameters: host or cells: HEK293, stably overexpressing SLC19A2 and transiently transfected with a further 500 ng wild-type plasmid
condition.notes: HEK293, 10 min, drug 1 mM, [3H]-thiamine 25 nM, 10 min, HEK293 cells expressing SLC19A2; relative to uptake without inhibitor; read-out: Average % SLC19A2 thiamine uptake
readout.kind: remaining activity at 1000 µM (%)

- compound: "Cn1cnc([N+](=O)[O-])c1Sc1ncnc2nc[nH]c12 [Azathioprine]"
  remaining activity at 1000 µM [%]: 87.2
- compound: "C=C[C@H]1C[N@@]2CC[C@H]1C[C@H]2[C@H](O)c1ccnc2ccc(OC)cc12 [Quinine]"
  remaining activity at 1000 µM [%]: 69.7
- compound: "CNC(C)C1CCC(N)C(OC2C(N)CC(N)C(OC3OCC(C)(O)C(NC)C3O)C2O)O1 (stereo not shown) [Gentamicin]"
  remaining activity at 1000 µM [%]: 81.9
- compound: "O=C1NC(=O)C(c2ccccc2)(c2ccccc2)N1 [Phenytoin]"
  remaining activity at 1000 µM [%]: 75
- compound: "CC[C@H]1OC(=O)[C@H](C)[C@@H](O[C@H]2C[C@@](C)(OC)[C@@H](O)[C@H](C)O2)[C@H](C)[C@@H](O[C@@H]2O[C@H](C)C[C@H](N(C)C)[C@H]2O)[C@](C)(O)C[C@@H](C)CN(C)[C@H](C)[C@@H](O)[C@]1(C)O [Azithromycin]"
  remaining activity at 1000 µM [%]: 81.9
- compound: "O=C(O)c1cc(/N=N/c2ccc(S(=O)(=O)Nc3ccccn3)cc2)ccc1O [Sulfasalazine]"
  remaining activity at 1000 µM [%]: 101
- compound: "CC1(C)S[C@@H]2[C@H](NC(=O)[C@H](N)c3ccc(O)cc3)C(=O)N2[C@H]1C(=O)O [Amoxicillin]"
  remaining activity at 1000 µM [%]: 95.9
